Target: T1, cSIRPαV1D1 with histidine tag (cynomolgus monkey (Macaca fascicularis), UniProt Q5TFQ8 30-146 (human entry))
T1 construct: also called cynomolgus monkey SIRPαV1D1; not shown: histidine tag
T1 chain: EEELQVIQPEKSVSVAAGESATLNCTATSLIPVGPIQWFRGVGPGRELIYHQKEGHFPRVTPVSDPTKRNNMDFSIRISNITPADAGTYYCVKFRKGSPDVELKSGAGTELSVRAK
Assay: SPR (Biacore 3000), IgG captured on anti-human IgG, His-tagged D1 analyte
measurement-type: pKd
The value called pKd is obtained by taking minus log10 of the concentration in mol/L.

binder="Ab2_G4 (antibody, human IgG4 S228P, kappa, V domains shown, human IgG4 format) VH: EVQLVESGGGLVKPGGSLRLSCAASGFTFSSYVMSWVRQTPGKGLEWVATISSGGTYTYYPDSVKGRFTLSRDNAKNSLYLQMNSLRAEDTAVYYCASSVDGSAFDYWGQGTTVTVSS VL: DIVITQSPASLAVSLGERATISCRASESVDSYGMSFMHWYQQKPGQPPKLLIYRASNLESGVPDRFSGSGSRTDFTLTINPLQAEDVATYYCHQSSENLPWTFGGGTKVEIKR" experimental_value=6.84
binder="Ab8_G4 (antibody, human IgG4 S228P, kappa, V domains shown, human IgG4 format) VH: EVQLVESGGGLVKPGGSLRLSCAASGFTFSSYVMSWVRQTPGKGLEWVATISSGGTYTYYPESVKGRFTLSRDNAKNSLYLQMNSLRAEDTAVYYCASQLTGSEFDYWGQGTTVTVSS VL: DIVMTQSPASLAVSLGERATISCRASESVDSYGNSFMHWYQQKPGQPPKLLIYRASNLESGVPDRFSGSGSRTDFTLTINPLQAEDVATYYCHQSADLPWTFGGGTKVEIKR" experimental_value=6.59

## Task Need pKd of Ab9_G2 (antibody, human IgG2, V domains shown, same antibody as Ab9_G4 except human IgG2 CH1, hinge, CH2 and CH3) VH: EVQLVESGGGLVKPGGSLRLSCAASGFTFSSYVMSWVRQTPGKGLEWVATISSGGTYTYYPNSVKGRFTLSRDNAKNSLYLQMNSLRAEDTAVYYCVSSMTGSSFDYWGQGTTVTVSS VL: DIVITQSPASLAVSLGERATISCRASESVDSYGNSFMHWYQQKPGQPPKLLIYRASNLESGVPDRFSGSGSRTDFTLTINPLQAEDVATYYCHQSSEQLPWTFGGGTKVEIKR , thanks.
## Result 6.81
